- Tested on: OVCAR-3 ovarian
- protocol description: NCI tumour cell line growth inhibition, 48 h; in the data active = GI50 below about 0.43 µM; inactive = the rest
Use one of these outcomes when replying: T (active), F (inactive)

>  <compound>
Cc1ccc(Cl)c(Nc2ccccc2C(=O)O)c1Cl

>  <cat>
F

$$$$
>  <compound>
Clc1cc(Cl)cc(N2N=C(c3cccc(Nc4ccncc4)c3)CC2c2ccc3c(c2)OCO3)c1 (stereo unspecified)

>  <cat>
F

$$$$
>  <compound>
O=C1c2cccc(NCCN=Cc3ccccc3O)c2C(=O)c2c(NCCN=Cc3ccccc3O)cccc21

>  <cat>
F

$$$$

So what was the verdict on `Cc1ccc(NC(=O)c2sc3nc4c(cc3c2N)C(=O)CCC4)cc1C` in this test?
T

Same read-out for CC(=O)N1N=C2/C(=C/c3ccc(Cl)cc3)CC(C)CC2C1c1ccc(Cl)cc1 (stereo unspecified) ?
F

Same read-out for `COc1cc2c(cc1Nc1nc(Nc3cccc(F)c3C(N)=O)c3cc[nH]c3n1)N(C(=O)CN1CCN(C(C)C)CC1)CC2` ?
F
